Data origin: the supplement of paper PMC9112550

Test system: Escherichia coli TOP10;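 further: peptides expressed intracellularly from a pBAD plasmid library in pooled LB shake-flask culture, induced with 0.3% L-arabinose, DNA abundance read by NGS, three biological replicates, DESeq2 with apeglm shrinkage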
Test: shrunken log2 fold change of peptide-encoding DNA abundance (4.5 h post-induction vs induction); higher = less antimicrobial activity (less host growth inhibition)
Conditions: time post-induction: 4.5 h; library: site-saturation at positions 5, 18, 19, 20
Given measured shrunken log2 fold change, output 1.0 if it is greater than or equal to 0.003 and 0.0 if not.

Worked set:
| residue string | label |
| --- | --- |
| RRIRGRPPRLPRPRPRPRNMPRP | 1.0 |
| RRIRMRPPRLPRPRPRPAPDPRP | 1.0 |
| RRIRARPPRLPRPRPRPNGSPRP | 1.0 |
| RRIRYRPPRLPRPRPRPVVAPRP | 0.0 |
| RRIRLRPPRLPRPRPRPSSGPRP | 1.0 |
| RRIRRRPPRLPRPRPRPPLGPRP | 1.0 |
| RRIRHRPPRLPRPRPRPMCIPRP | 0.0 |
| RRIRERPPRLPRPRPRPERTPRP | 1.0 |
| RRIRGRPPRLPRPRPRPERWPRP | 1.0 |
| RRIRNRPPRLPRPRPRPLRHPRP | 0.0 |

Can "RRIRGRPPRLPRPRPRPSDTPRP" be said to have shrunken log2 fold change at or above 0.003?
1.0

Param item: "RRIRYRPPRLPRPRPRPILYPRP"
0.0

Param item: "RRIRIRPPRLPRPRPRPVSPPRP"
1.0

Param item: "RRIRQRPPRLPRPRPRPIGWPRP"
1.0

Param item: "RRIRNRPPRLPRPRPRPSNEPRP"
0.0

Param item: "RRIRKRPPRLPRPRPRPGIVPRP"
1.0

Param item: "RRIRVRPPRLPRPRPRPYGCPRP"
0.0

Param item: "RRIRFRPPRLPRPRPRPHKNPRP"
0.0

Param item: "RRIRNRPPRLPRPRPRPFIEPRP"
0.0

Param item: "RRIRDRPPRLPRPRPRPDMTPRP"
1.0

Param item: "RRIRHRPPRLPRPRPRPSYCPRP"
0.0

Param item: "RRIRSRPPRLPRPRPRPKFWPRP"
1.0

Param item: "RRIRIRPPRLPRPRPRPEYVPRP"
0.0

Param item: "RRIRFRPPRLPRPRPRPKAFPRP"
1.0

Param item: "RRIRNRPPRLPRPRPRPSFIPRP"
0.0

Param item: "RRIRIRPPRLPRPRPRPCEIPRP"
0.0

Param item: "RRIRERPPRLPRPRPRPRDDPRP"
1.0

Param item: "RRIRQRPPRLPRPRPRPKKPPRP"
1.0

Param item: "RRIRDRPPRLPRPRPRPFEEPRP"
1.0

Param item: "RRIRIRPPRLPRPRPRPVWRPRP"
1.0

Param item: "RRIRWRPPRLPRPRPRPNLDPRP"
1.0

Param item: "RRIRHRPPRLPRPRPRPCMSPRP"
1.0
